Test: Absorption maximum (Abs. max) of the fluorochrome in solvent
Assay type: physicochemical
Settings: MeOH
Listing of entries alongside the reported Abs. max.
Readout kind: Abs. max (nm)

[[record]]
compound = "CN1C2CCC1/C(=C\\C=C1\\N(CCCS(=O)(=O)O)c3ccc(S(=O)(=O)O)cc3C1(C)C)C(SCCC(=O)O)=C2/C=C/C1=[N+](CCCS(=O)(=O)O)c2ccc(S(=O)(=O)O)cc2C1(C)C (centres unmarked) [Compound 13]"
obs_value = 788

[[record]]
compound = "CN1C2CCC1/C(=C\\C=C1\\N(CCCCS(=O)(=O)O)c3ccccc3C1(C)C)C(Cl)=C2/C=C/C1=[N+](CCCCS(=O)(=O)O)c2ccccc2C1(C)C (centres unmarked) [Compound 11]"
obs_value = 770

[[record]]
compound = "CCN1/C(=C/C=C2C(Cl)=C(/C=C/C3=[N+](CC)c4ccc5c(S(=O)(=O)O)cc(S(=O)(=O)O)cc5c4C3(C)C)C3CCC/2N3C)C(C)(C)c2c1ccc1c(S(=O)(=O)O)cc(S(=O)(=O)O)cc21 (centres unmarked) [Compound 38]"
obs_value = 814

[[record]]
compound = "CN1C2CCC1/C(=C\\C=C1\\N(CCCCS(=O)(=O)O)c3ccccc3C1(C)C)C(SCCC(=O)O)=C2/C=C/C1=[N+](CCCCS(=O)(=O)O)c2ccccc2C1(C)C (centres unmarked) [Compound 12]"
obs_value = 780

[[record]]
compound = "CN1C2CCC1/C(=C\\C=C1\\N(CCCS(=O)(=O)O)c3ccc(S(=O)(=O)O)cc3C1(C)C)C(Cl)=C2/C=C/C1=[N+](CCCS(=O)(=O)O)c2ccc(S(=O)(=O)O)cc2C1(C)C (centres unmarked) [Compound 39]"
obs_value = 780


###

Test: Fluorescence emission maximum (Em. max) of the fluorochrome in solvent
Type: physicochemical
Conditions: MeOH
Readout kind: Em. max (nm)

[[record]]
compound = "CN1C2CCC1/C(=C\\C=C1\\N(CCCCS(=O)(=O)O)c3ccccc3C1(C)C)C(Cl)=C2/C=C/C1=[N+](CCCCS(=O)(=O)O)c2ccccc2C1(C)C (centres unmarked)"
obs_value = 790

[[record]]
compound = "CN1C2CCC1/C(=C\\C=C1\\N(CCCS(=O)(=O)O)c3ccc(S(=O)(=O)O)cc3C1(C)C)C(Cl)=C2/C=C/C1=[N+](CCCS(=O)(=O)O)c2ccc(S(=O)(=O)O)cc2C1(C)C (centres unmarked)"
obs_value = 802

[[record]]
compound = "CCN1/C(=C/C=C2C(Cl)=C(/C=C/C3=[N+](CC)c4ccc5c(S(=O)(=O)O)cc(S(=O)(=O)O)cc5c4C3(C)C)C3CCC/2N3C)C(C)(C)c2c1ccc1c(S(=O)(=O)O)cc(S(=O)(=O)O)cc21 (centres unmarked)"
obs_value = 835

[[record]]
compound = "CN1C2CCC1/C(=C\\C=C1\\N(CCCCS(=O)(=O)O)c3ccccc3C1(C)C)C(SCCC(=O)O)=C2/C=C/C1=[N+](CCCCS(=O)(=O)O)c2ccccc2C1(C)C (centres unmarked)"
obs_value = 810

[[record]]
compound = "CN1C2CCC1/C(=C\\C=C1\\N(CCCS(=O)(=O)O)c3ccc(S(=O)(=O)O)cc3C1(C)C)C(SCCC(=O)O)=C2/C=C/C1=[N+](CCCS(=O)(=O)O)c2ccc(S(=O)(=O)O)cc2C1(C)C (centres unmarked)"
obs_value = 810


###

Test: Absorption maximum (Abs. max) of the fluorochrome in solvent
Format: physicochemical
Settings: water
Readout kind: Abs. max (nm)

[[record]]
compound = "CN1C2CCC1/C(=C\\C=C1\\N(CCCCS(=O)(=O)O)c3ccccc3C1(C)C)C(Cl)=C2/C=C/C1=[N+](CCCCS(=O)(=O)O)c2ccccc2C1(C)C (centres unmarked) [Compound 11]"
readout_kind = "Abs. max"
obs_value = 760

[[record]]
compound = "CN1C2CCC1/C(=C\\C=C1\\N(CCCS(=O)(=O)O)c3ccc(S(=O)(=O)O)cc3C1(C)C)C(Cl)=C2/C=C/C1=[N+](CCCS(=O)(=O)O)c2ccc(S(=O)(=O)O)cc2C1(C)C (centres unmarked) [Compound 39]"
readout_kind = "Abs. max"
obs_value = 768

[[record]]
compound = "CN1C2CCC1/C(=C\\C=C1\\N(CCCS(=O)(=O)O)c3ccc(S(=O)(=O)O)cc3C1(C)C)C(SCCC(=O)O)=C2/C=C/C1=[N+](CCCS(=O)(=O)O)c2ccc(S(=O)(=O)O)cc2C1(C)C (centres unmarked) [Compound 13]"
readout_kind = "Abs. max"
obs_value = 777

[[record]]
compound = "CCN1/C(=C/C=C2C(Cl)=C(/C=C/C3=[N+](CC)c4ccc5c(S(=O)(=O)O)cc(S(=O)(=O)O)cc5c4C3(C)C)C3CCC/2N3C)C(C)(C)c2c1ccc1c(S(=O)(=O)O)cc(S(=O)(=O)O)cc21 (centres unmarked) [Compound 38]"
readout_kind = "Abs. max"
obs_value = 805

[[record]]
compound = "CN1C2CCC1/C(=C\\C=C1\\N(CCCCS(=O)(=O)O)c3ccccc3C1(C)C)C(SCCC(=O)O)=C2/C=C/C1=[N+](CCCCS(=O)(=O)O)c2ccccc2C1(C)C (centres unmarked) [Compound 12]"
readout_kind = "Abs. max"
obs_value = 768


Data origin, for the record: patent US9365721B2
